# System: GH3-TRE-Luc cell line
# Conditions: read-out: AC50 (uM) modified / 1000; Tox21_110001=Tox21_303013; viability, 1 nM T3 present, 24 h
Quantity kind: CC50
// unit must come after the numeric part

Exercise: Recall the recorded CC50 for Oc1ccc(Cl)cc1Cc1cc(Cl)ccc1O with GH3-TRE-Luc cell line and state it.
Key: 27.4 µM

---

# Measurement description: in vitro
# Conditions: rat, gh3-tre-luc cells, AC50 (uM) modified / 1000, Tox21_110001=Tox21_302025; viability, 1 nM T3 present, 24 h
Quantity kind: CC50 at 24 h

Exercise: Give its CC50 at 24 h value. Item: CCC(=O)c1ccccc1 [1-Phenylpropan-1-one]
Key: > 90 µM

---

# Measurement description: in vitro
# Conditions: rat, gh3-tre-luc cells, AC50 (uM) modified / 1000, Tox21_110001=Tox21_112820; viability, 1 nM T3 present, 24 h
Quantity kind: CC50 at 24 h

Exercise: Give its CC50 at 24 h value. Item: CCC(N)Cc1c[nH]c2ccccc12 (stereo not shown) [Etryptamine acetate]
Key: > 100 µM

---

# System: GH3-TRE-Luc cell line
# Conditions: read-out: AC50 (uM) modified / 1000; Tox21_110001=Tox21_300774; viability, 1 nM T3 present, 24 h
Quantity kind: CC50
// unit must come after the numeric part

Exercise: Give its CC50 value. Item: CCCCN(CC)c1c([N+](=O)[O-])cc(C(F)(F)F)cc1[N+](=O)[O-]
Key: 46 µM

---

# Measurement description: in vitro
# Conditions: rat, gh3-tre-luc cells, AC50 (uM) modified / 1000, Tox21_110001=Tox21_202460; viability, 1 nM T3 present, 24 h
Quantity kind: CC50 at 24 h

Exercise: Give its CC50 at 24 h value. Item: O=C(O)CC[N+](=O)[O-] [3-Nitropropionic acid]
Key: > 90 µM

---

# Measurement description: in vitro
# Conditions: rat, gh3-tre-luc cells, AC50 (uM) modified / 1000, Tox21_110001=Tox21_202985; viability, 1 nM T3 present, 24 h
Quantity kind: CC50 at 24 h (µM)
State the answer as a number, implicitly in µM.

Exercise: Give its CC50 at 24 h value. Item: Oc1ccc(Cl)cc1Cc1ccccc1 [Clorophene]
Key: 43.2

---

# Tested on: GH3-TRE-Luc cell line
# Conditions: read-out: AC50 (uM) modified / 1000; Tox21_110001=Tox21_302943; viability, 1 nM T3 present, 24 h
Quantity kind: CC50 (µM)
State the answer as a number, implicitly in µM.

Exercise: Give its CC50 value. Item: Nc1ccc(N)cc1
Key: 68.9

---

# Tested on: GH3-TRE-Luc cell line
# Conditions: read-out: AC50 (uM) modified / 1000; Tox21_110001=Tox21_113237; viability, 1 nM T3 present, 24 h
Quantity kind: CC50 (µM)
State the answer as a number, implicitly in µM.

Exercise: Give its CC50 value. Item: Cc1cc(-c2ccc(/N=N/c3ccc4c(S(=O)(=O)O)cc(S(=O)(=O)O)c(N)c4c3O)c(C)c2)ccc1/N=N/c1ccc2c(S(=O)(=O)O)cc(S(=O)(=O)O)c(N)c2c1O [C.I. Direct Blue 53]
Key: 21.8

---

Item-by-item account of AC50
# System: thyroid hormone receptor (endogenous TRα and TRβ)
# Measurement description: GH3-TRE-Antag primary qHTS, luciferase reporter, antagonist mode with 1 nM T3 (TOX21_TR_LUC_GH3_Antagonist, aeid 804)
# Type: cell-based, rat
# Conditions: antagonist mode, 1 nM T3; read-out: GH3-TRE-Antag AC50
Counter-ions that a name gives are not always drawn.
State the answer as a number, implicitly in µM.

Exercise: Recall the recorded AC50 for COC(=O)C[C@](O)(CCCC(C)(C)O)C(=O)O[C@@H]1C(OC)=C[C@]23CCCN2CCc2cc4c(cc2[C@H]13)OCO4 [Omacetaxine mepesuccinate] with thyroid hormone receptor (endogenous TRα and TRβ) and state it.
Key: 0.029

Exercise: Can you check N=C1C=CC(=C(c2ccc(N)cc2)c2ccc(N)cc2)C=C1 [C.I. Basic Red 9 monohydrochloride] next?
Key: 5.15

Now let's try a different one.
Exercise: Recall the recorded AC50 for CCC(=C(CC)c1ccc(O)cc1)c1ccc(O)cc1 [(Z,E)-Diethylstilbestrol, reference compound] with thyroid hormone receptor (endogenous TRα and TRβ) and state it.
Key: 17.1

---

# Measurement description: in vitro
# Conditions: rat, gh3-tre-luc cells, AC50 (uM) modified / 1000, Tox21_110001=Tox21_112889; viability, 1 nM T3 present, 24 h
Quantity kind: CC50 at 24 h

Exercise: Give its CC50 at 24 h value. Item: CNC(C)Cc1ccc2c(c1)OCO2 (stereo not shown)
Key: > 100 µM

---

# Measurement description: in vitro
# Conditions: rat, gh3-tre-luc cells, AC50 (uM) modified / 1000
Counter-ions that a name gives are not always drawn.
Item-by-item account of CC50 at 24 h

Look over these answered cases.
Exercise: Give its CC50 at 24 h value. Item: NC(CO)(CO)CO [tromethamine]
Key: > 90 µM

Exercise: Can you check CC[N+](C)(CC)CCOC(=O)C(O)(c1ccccc1)C1CCCCC1 (stereo not shown) [Oxyphenonium bromide] next?
Key: > 50 µM

Exercise: Can you check CCCCC(CC)COC(C)=O (stereo not shown) [2-Ethylhexyl acetate] next?
Key: > 90 µM

Exercise: Can you check CC1(C)CC(OC(=O)CCCCCCCCC(=O)OC2CC(C)(C)NC(C)(C)C2)CC(C)(C)N1 next?
Key: 1.55 µM

Exercise: Can you check CC(C)C[C@H](NC(=O)CNC(=O)[C@H](Cc1ccc(O)cc1)NC(=O)[C@H](CO)NC(=O)[C@H](Cc1c[nH]c2ccccc12)NC(=O)[C@H](Cc1cnc[nH]1)NC(=O)[C@@H]1CCC(=O)N1)C(=O)N[C@@H](CCCNC(=N)N)C(=O)N1CCC[C@H]1C(=O)NCC(N)=O [Gonadorelin hydrochloride] next?
Key: > 50 µM

Now let's try a different one.
Exercise: Give its CC50 at 24 h value. Item: COc1ccccc1OCC1CNC(=O)O1 (stereo not shown) [Mephenoxalone]
Key: > 50 µM

---

# Measurement description: in vitro
# Conditions: rat, gh3-tre-luc cells, AC50 (uM) modified / 1000
Structures can show the parent of a compound that is named as a salt.
Quantity kind: CC50 at 24 h (µM)
State the answer as a number, implicitly in µM.

Look over these answered cases.
Exercise: Give its CC50 at 24 h value. Item: CN1CCC(=C2c3ccccc3Sc3ccccc32)CC1 [Pimethixene maleate]
Key: 4.52

Exercise: Can you check CN1CCC[C@@H]1Cc1c[nH]c2ccc(CCS(=O)(=O)c3ccccc3)cc12 next?
Key: 21.1

Exercise: Can you check c1ccc2sc(SSN3CCOCC3)nc2c1 next?
Key: 18.6

Now let's try a different one.
Exercise: Give its CC50 at 24 h value. Item: CCN=C1C=CC(=C(c2ccc(N(CC)CC)cc2)c2ccc(N(CC)CC)cc2)c2ccccc21
Key: 0.714

---

Item-by-item account of CC50 at 24 h
# Measurement description: in vitro
# Conditions: rat, gh3-tre-luc cells, AC50 (uM) modified / 1000

Exercise: Give its CC50 at 24 h value. Item: COC(=O)Cc1cccc2ccccc12 [Methyl 1-naphthaleneacetate]
Key: > 90 µM

Exercise: Can you check C=CCOC(C)=O [Allyl acetate] next?
Key: > 90 µM

Exercise: Can you check C=CC[N@@+]12CC[C@@]34c5ccccc5N5/C=C6/[C@H]7C[C@H]8[C@@]9(CC[N@@+]8(CC=C)C/C7=C/CO)c7ccccc7N(/C=C(/[C@@H](C[C@@H]31)/C(=C\CO)C2)[C@H]54)[C@@H]69 [Alcuronium chloride] next?
Key: > 20 µM

Exercise: Can you check CC(C)N1C(=O)c2ccccc2C1=O [N-Isopropylphthalimide] next?
Key: > 90 µM

Exercise: Can you check CCCc1ccc(C(=O)O)cc1 next?
Key: > 50 µM

---

# Measurement description: in vitro
# Conditions: rat, gh3-tre-luc cells, AC50 (uM) modified / 1000
Structures can show the parent of a compound that is named as a salt.
Quantity kind: CC50 at 24 h

Look over these answered cases.
Exercise: Give its CC50 at 24 h value. Item: CCCCCCCCC1CCC(=O)O1 (stereo not drawn)
Key: > 90 µM

Exercise: Can you check Cc1cccc(C)c1NC(=O)C1CCCCN1C (stereo not drawn) [Mepivicaine hydrochloride] next?
Key: > 50 µM

Exercise: Can you check O=C(Cn1c(=O)sc2ccc(Cl)cc21)N1CCN(CCO)CC1 [Tiaramide hydrochloride] next?
Key: > 50 µM

Exercise: Can you check O=C(NCCN1CCOCC1)c1ccc(Cl)cc1 [Moclobemide] next?
Key: > 50 µM

Exercise: Can you check O=Cc1ccc(F)cc1 next?
Key: > 90 µM

More entries:
Exercise: Give its CC50 at 24 h value. Item: CC(C)C[C@H](NC(=O)[C@H](Cc1ccccc1)NC(=O)c1cnccn1)B(O)O
Key: 0.0167 µM

Exercise: Can you check CC(C)OP(=O)(CP(=O)(OC(C)C)OC(C)C)OC(C)C [Tetraisopropyl methylenediphosphonate] next?
Key: > 90 µM

Exercise: Can you check COc1cc(Cl)ccc1Cl next?
Key: > 90 µM

Exercise: Can you check C[C@H]1C[C@@H](O)CC(C)(C)C1 (stereo in doubt) next?
Key: > 90 µM
